Recorded CLint scaled at 1 μM by entry
Assay: Hepatocyte Stability Assay, human hepatocytes
Type: in vitro ADME
Settings: cryopreserved hepatocytes, read-out: Human Heps CLint
MEASUREMENT KIND: CLint scaled at 1 μM

{"COMPOUND": "CCN1CCN(Cc2ccc(Nc3nc4ccc(Oc5ccnc(NC(C)=O)c5)cc4n3C)cc2C(F)(F)F)CC1 [Example R-1, reference compound]", "RESULT": "12 to 20 mL/min/kg"}
{"COMPOUND": "CN(C)C(=O)Nc1cc(Oc2cnc3nc(Nc4cc5n(n4)CCC54CCC4)n(C)c3c2C#N)ccn1", "RESULT": "≤ 6 mL/min/kg"}
{"COMPOUND": "Cn1cc(C(F)(F)F)cc(Nc2nc3ncc(Oc4ccnc(NC(=O)N5CCC5)c4)c(C#N)c3n2C)c1=O", "RESULT": "≤ 6 mL/min/kg"}
{"COMPOUND": "CN(C)C(=O)Nc1cc(Oc2cnc3nc(Nc4cc(C(F)(F)F)cn(C)c4=O)n(C)c3c2C#N)ccn1", "RESULT": "≤ 6 mL/min/kg"}
